System tested: CaNbp2
Test details: SPOT peptide array binding signal intensity (averaged, normalized) (arbitrary units (background-subtracted, floor 0; scale differs between SH3 domains)); higher = stronger binding of the SH3 domain to the peptide
Category scheme (SPOT peptide array binding signal intensity): low interval = under 200, middle interval = from 200 up to 500, high interval = 500 and over

# Binder, Classification
measured = [
    ("QTREPNEPPPPSPAM", "low interval"),
    ("VKPRQLFPIPLNKVD", "low interval"),
    ("LKPPIGRPPKFPKSP", "low interval"),
    ("IAPIPMPKPNPTHIS", "middle interval"),
    ("QPQRTAPKPPISAPR", "high interval"),
    ("VPVAPPPPPASLGQS", "low interval"),
    ("GERSRPLVISILSSA", "low interval"),
    ("ALRRRLPVTRSKINW", "high interval"),
    ("TPRLSLPRLPNKHHW", "low interval"),
    ("RLPAPPPPPRRGPAP", "low interval"),
    ("NNQRRKPLLLNIGDH", "high interval"),
    ("LFMKGTPEFPKSGFS", "high interval"),
    ("KNPRRQLQIPRQQPS", "middle interval"),
    ("RLSRLLLSLPPESFT", "middle interval"),
    ("RTIRKLPLMSLSEYF", "high interval"),
]
